This listing pairs sequences with measured self-splicing fitness (ln).
# protocolDescription: self-splicing fitness, log relative to wild type (ln ratio); higher = more splicing; Tetrahymena group I intron in knt gene, E. coli kanamycin selection, DiMSum; sequences stand for … in CUCUCU…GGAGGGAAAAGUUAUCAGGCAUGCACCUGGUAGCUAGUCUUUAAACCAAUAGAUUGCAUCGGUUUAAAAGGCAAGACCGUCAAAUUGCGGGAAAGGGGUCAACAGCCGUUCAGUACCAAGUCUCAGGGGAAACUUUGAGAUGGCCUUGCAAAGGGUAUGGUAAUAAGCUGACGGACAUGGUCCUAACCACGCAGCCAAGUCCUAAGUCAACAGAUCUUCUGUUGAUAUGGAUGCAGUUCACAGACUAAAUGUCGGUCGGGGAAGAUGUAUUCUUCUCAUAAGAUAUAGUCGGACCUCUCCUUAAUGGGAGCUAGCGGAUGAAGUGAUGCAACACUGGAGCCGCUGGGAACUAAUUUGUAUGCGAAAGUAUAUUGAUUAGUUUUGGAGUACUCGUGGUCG;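 note: selection with 25 µg/mL kanamycin versus none on LB agar overnight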
# protocolConditions: 37 °C

| sequenceString | self-splicing fitness (ln) |
| --- | --- |
| AUCCAGCAAUAUUACGGGAC | -3.04 |
| UGCCAGCAAUAUUACGUAGA | -0.504 |
| AUUGAGCAAUAUUACGAACA | -2.75 |
| UACCAGCAAUAUUACGAUAG | 0.0475 |
| GACAAGCAAUAUUACGCGAU | -1.02 |
| CAAAAGCAAUAUUACGGCAU | -1.4 |
| CCAAAGCAAUAUUACGGAUA | -2.17 |
| CUGAAGCAAUAUUACGUAUG | -0.154 |
